Data provenance is ChEMBL document CHEMBL3046513.

Kindly supply the reported Activity values for the records listed here.
System: Rattus norvegicus
Assay Explanation: Anti-inflammatory activity in Rattus norvegicus (rat) assessed as decrease in carrageenan-induced paw edema at 100 mg/kg, po administered 30 min prior to carrageenan challenge measured after 180 min (reference value: 2.275 +/- 0.1181 mm)
Assay type: functional
Record the value in mm, omitting the unit from your answer.

Q. Short answer please: Activity, Rattus norvegicus, entry COc1ccc(Br)c(C(=O)NN2C(=O)CSC2c2ccc(F)cc2)c1 (stereo not drawn)
A. 2.2

Q. Short answer please: Activity, Rattus norvegicus, entry COc1ccc(Br)c(C(=O)NN2C(=O)CSC2c2ccccc2OC)c1 (stereo not drawn)
A. 2.075

Q. Short answer please: Activity, Rattus norvegicus, entry COc1ccc(C2SCC(=O)N2NC(=O)c2cc(OC)ccc2Br)c(OC)c1 (stereo not drawn)
A. 1.9

Q. Short answer please: Activity, Rattus norvegicus, entry COc1ccc(Br)c(C(=O)NN2C(=O)CSC2C2=C(Cl)c3ccccc3C(c3ccc(Cl)c(Cl)c3)C2)c1 (stereo not drawn)
A. 2.025

Q. Short answer please: Activity, Rattus norvegicus, entry COc1ccc(Br)c(C(=O)NN2C(=O)CSC2c2ccc(C)cc2)c1 (stereo not drawn)
A. 1.95

Q. Short answer please: Activity, Rattus norvegicus, entry COc1ccc(Br)c(C(=O)NN2C(=O)CSC2c2cccc3cc(OC)ccc23)c1 (stereo not drawn)
A. 1.98

Q. Short answer please: Activity, Rattus norvegicus, entry COc1ccc(Br)c(C(=O)NN2C(=O)CSC2c2cccnc2)c1 (stereo not drawn)
A. 1.9

Q. Short answer please: Activity, Rattus norvegicus, entry COc1ccc(Br)c(C(=O)NN2C(=O)CSC2c2ccccc2)c1 (stereo not drawn)
A. 1.75

Q. Short answer please: Activity, Rattus norvegicus, entry COc1ccc(C2SCC(=O)N2NC(=O)c2cc(OC)ccc2Br)cc1 (stereo not drawn)
A. 1.875

Q. Short answer please: Activity, Rattus norvegicus, entry COc1ccc(Br)c(C(=O)NN2C(=O)CSC2c2cccc(Cl)c2)c1 (stereo not drawn)
A. 1.6

Q. Short answer please: Activity, Rattus norvegicus, entry COc1ccc(Br)c(C(=O)NN2C(=O)CSC2c2ccc([N+](=O)[O-])cc2)c1 (stereo not drawn)
A. 1.975

Q. Short answer please: Activity, Rattus norvegicus, entry COc1ccc(Br)c(C(=O)NN2C(=O)CSC2c2ccc(O)c(OC)c2)c1 (stereo not drawn)
A. 1.78

Q. Short answer please: Activity, Rattus norvegicus, entry COc1ccc(Br)c(C(=O)NN2C(=O)CSC2c2ccc(-c3ccccc3)cc2)c1 (stereo not drawn)
A. 2.075

Q. Short answer please: Activity, Rattus norvegicus, entry COc1ccc(Br)c(C(=O)NN2C(=O)CSC2c2ccc(Cl)cc2)c1 (stereo not drawn)
A. 2.25

Q. Short answer please: Activity, Rattus norvegicus, entry `O=C(O)Cc1ccccc1Nc1c(Cl)cccc1Cl`
A. 0.625

Q. Short answer please: Activity, Rattus norvegicus, entry COc1ccc(Br)c(C(=O)NN2C(=O)CSC2c2ccccc2O)c1 (stereo not drawn)
A. 2.081

Q. Short answer please: Activity, Rattus norvegicus, entry COc1ccc(Br)c(C(=O)NN2C(=O)CSC2c2ccccc2Cl)c1 (stereo not drawn)
A. 2.075

Q. Short answer please: Activity, Rattus norvegicus, entry COc1ccc(Br)c(C(=O)NN2C(=O)CSC2c2ccc(O)cc2)c1 (stereo not drawn)
A. 2.048

###

System: Mus musculus
Assay Explanation: Analgesic activity in Mus musculus […] albino (mouse) assessed as time taken to tail withdrawl at 100 mg/kg, po administered through intragastric tube after 60 min by tail flick test (reference value: 1.363 +/- 0.1297 secs)
Format: functional
Kindly supply the reported Time values for the records listed here.
Record the value in s, omitting the unit from your answer.

Q. So what's the measured Time for this one? COc1ccc(Br)c(C(=O)NN2C(=O)CSC2c2ccc(F)cc2)c1 (stereo not given)
A. 2.923

Q. So what's the measured Time for this one? COc1ccc(Br)c(C(=O)NN2C(=O)CSC2c2ccccc2Cl)c1 (stereo not given)
A. 1.963

Q. So what's the measured Time for this one? COc1ccc(Br)c(C(=O)NN2C(=O)CSC2c2ccc(-c3ccccc3)cc2)c1 (stereo not given)
A. 2.988

Q. So what's the measured Time for this one? COc1ccc(Br)c(C(=O)NN2C(=O)CSC2c2ccc(Cl)cc2)c1 (stereo not given)
A. 2.613

Q. So what's the measured Time for this one? COc1ccc(Br)c(C(=O)NN2C(=O)CSC2c2ccccc2O)c1 (stereo not given)
A. 3.546

Q. So what's the measured Time for this one? COc1ccc(C2SCC(=O)N2NC(=O)c2cc(OC)ccc2Br)cc1 (stereo not given)
A. 2.388

Q. So what's the measured Time for this one? COc1ccc(Br)c(C(=O)NN2C(=O)CSC2c2cccnc2)c1 (stereo not given)
A. 3.25

Q. So what's the measured Time for this one? COc1ccc(Br)c(C(=O)NN2C(=O)CSC2c2ccc(O)c(OC)c2)c1 (stereo not given)
A. 3.468

Q. So what's the measured Time for this one? COc1ccc(Br)c(C(=O)NN2C(=O)CSC2c2cccc3cc(OC)ccc23)c1 (stereo not given)
A. 1.954

Q. So what's the measured Time for this one? COc1ccc(Br)c(C(=O)NN2C(=O)CSC2c2ccccc2OC)c1 (stereo not given)
A. 2.175

###

Test system: Staphylococcus aureus
Assay Explanation: Antibacterial activity against Staphylococcus aureus ATCC 25923 assessed as growth inhibition by serial plate dilution method
Assay type: functional
Kindly supply the reported MIC values for the records listed here.
Record the value in µg/mL, omitting the unit from your answer.

Q. So what's the measured MIC for this one? COc1ccc(C2SCC(=O)N2NC(=O)c2cc(OC)ccc2Br)c(OC)c1 (configuration not stated)
A. 12.5

Q. So what's the measured MIC for this one? COc1ccc(Br)c(C(=O)NN2C(=O)CSC2c2ccc(Cl)cc2)c1 (configuration not stated)
A. 12.5

Q. So what's the measured MIC for this one? `COc1ccc(Br)c(C(=O)N/N=C\c2ccc(O)c(OC)c2)c1`
A. 12.5

Q. So what's the measured MIC for this one? COc1ccc(Br)c(C(=O)NN2C(=O)CSC2c2ccc(F)cc2)c1 (configuration not stated)
A. 12.5

Q. So what's the measured MIC for this one? COc1ccc(Br)c(C(=O)N/N=C/C2=C(Cl)c3ccccc3C(c3ccc(Cl)c(Cl)c3)C2)c1 (configuration not stated)
A. 12.5

Q. So what's the measured MIC for this one? CC1(C)S[C@@H]2[C@H](NC(=O)Cc3ccccc3)C(=O)N2[C@H]1C(=O)O [PENICILLIN G]
A. 0.12

Q. So what's the measured MIC for this one? `COc1ccc(Br)c(C(=O)N/N=C\c2ccc(O)cc2)c1`
A. 12.5

Q. So what's the measured MIC for this one? COc1ccc(Br)c(C(=O)NN2C(=O)CSC2c2cccc(Cl)c2)c1 (configuration not stated)
A. 12.5

Q. So what's the measured MIC for this one? COc1ccc(Br)c(C(=O)NN2C(=O)CSC2c2ccccc2OC)c1 (configuration not stated)
A. 6.25

Q. So what's the measured MIC for this one? COc1ccc(Br)c(C(=O)NN2C(=O)CSC2c2ccccc2)c1 (configuration not stated)
A. 25

Q. So what's the measured MIC for this one? COc1ccc(Br)c(C(=O)NN2C(=O)CSC2C2=C(Cl)c3ccccc3C(c3ccc(Cl)c(Cl)c3)C2)c1 (configuration not stated)
A. 6.25

Q. So what's the measured MIC for this one? `COc1ccc(Br)c(C(=O)N/N=C\c2ccccc2OC)c1`
A. 6.25

Q. So what's the measured MIC for this one? COc1ccc(Br)c(C(=O)NN2C(=O)CSC2c2ccccc2O)c1 (configuration not stated)
A. 6.25

Q. So what's the measured MIC for this one? `COc1ccc(Br)c(C(=O)N/N=C\c2ccc(C)cc2)c1`
A. 12.5

Q. So what's the measured MIC for this one? COc1ccc(Br)c(C(=O)NN2C(=O)CSC2c2ccc([N+](=O)[O-])cc2)c1 (configuration not stated)
A. 6.25

Q. So what's the measured MIC for this one? COc1ccc(Br)c(C(=O)NN2C(=O)CSC2c2ccc(O)cc2)c1 (configuration not stated)
A. 12.5

Q. So what's the measured MIC for this one? COc1ccc(Br)c(C(=O)NN2C(=O)CSC2c2ccc(C)cc2)c1 (configuration not stated)
A. 6.25

Q. So what's the measured MIC for this one? `COc1ccc(Br)c(C(=O)N/N=C\c2cccnc2)c1`
A. 6.25

Q. So what's the measured MIC for this one? `COc1ccc(Br)c(C(=O)N/N=C\c2ccc(F)cc2)c1`
A. 6.25

Q. So what's the measured MIC for this one? `COc1ccc(Br)c(C(=O)N/N=C\c2ccc([N+](=O)[O-])cc2)c1`
A. 12.5

Q. So what's the measured MIC for this one? COc1ccc(C2SCC(=O)N2NC(=O)c2cc(OC)ccc2Br)cc1 (configuration not stated)
A. 6.25

Q. So what's the measured MIC for this one? `COc1ccc(Br)c(C(=O)N/N=C\c2ccc(Cl)cc2)c1`
A. 6.25
